Please go through the items and note down their logD.
- Run description: Determination of logD (1-octanol / phosphate buffer pH 7.4)
- Type: physicochemical
- Test settings: 1-octanol/phosphate buffer, pH 7.4, pH 7.4, 1-octanol/phosphate buffer; read-out: Log D, pH 7.4
Lab note: record the figure alone, no unit after it.

GET /value?item= `N#CC[C@H]1CN(c2nc(OCC34CCCN3CCC4)nc3c2CCN(c2cccc4cccc(Cl)c24)C3)CCN1C(=O)/C=C/CN1[C@@H]2CC[C@H]1COC2` &field=logD returns 2.59

GET /value?item= `N#CC[C@H]1CN(c2nc(OC[C@@]34CCCN3C[C@H](F)C4)nc3c(F)c(-c4cccc5cccc(Cl)c45)ncc23)CCN1C(=O)/C=C/c1nc([C@H]2C[C@@H]2F)no1` &field=logD returns 4.24

GET /value?item= `N#CC[C@H]1CN(c2nc(OC[C@@]34CCCN3C[C@H](F)C4)nc3c(F)c(-c4cccc(Cl)c4C4CC4)ncc23)CCN1C(=O)/C=C/CN1CC2CC(C1)O2` &field=logD returns 3.13

GET /value?item= `CO[C@@H]1CCN(C/C=C/C(=O)N2CCN(c3nc(OC[C@@]45CCCN4C[C@H](F)C5)nc4c(F)c(-c5cccc6cccc(Cl)c56)ncc34)C[C@@H]2CC#N)C1` &field=logD returns 3.18

GET /value?item= `N#CC[C@H]1CN(c2nc(OC[C@@]34CCCN3C[C@H](F)C4)nc3c(F)c(-c4cccc5ccc(F)c(F)c45)ncc23)CCN1C(=O)/C=C/CN1C[C@H]2COC[C@H]2C1` &field=logD returns 3

GET /value?item= `N#CC[C@H]1CN(c2nc(OCC34CCCN3CCC4)nc3c2CCN(c2cccc4cccc(Cl)c24)C3)CCN1C(=O)/C=C/CN1CCCOCC1` &field=logD returns 2.44

GET /value?item= `CN1CC[C@@H]1/C=C/C(=O)N1CCN(c2nc(OC[C@@]34CCCN3C[C@H](F)C4)nc3c(F)c(-c4cccc(Cl)c4C(F)(F)F)ncc23)C[C@@H]1CC#N` &field=logD returns 2.54

GET /value?item= `N#CC[C@H]1CN(c2nc(OC[C@@]34CCCN3C[C@H](F)C4)nc3c(F)c(-c4cccc5ccc(F)c(Cl)c45)ncc23)CCN1C(=O)/C=C/CN1[C@@H]2CC[C@H]1COC2` &field=logD returns 3.53

GET /value?item= `N#CC[C@H]1CN(c2nc(OC[C@@]34CCCN3C[C@H](F)C4)nc3c(F)c(-c4cccc5cccc(Cl)c45)ncc23)CCN1C(=O)/C=C/CN1CC[C@@H]2COC[C@H]21` &field=logD returns 2.99

GET /value?item= `Cc1nccc(/C=C/C(=O)N2CCN(c3nc(OC[C@@]45CCCN4C[C@H](F)C5)nc4c(F)c(-c5cccc6ccccc56)ncc34)C[C@@H]2CC#N)n1` &field=logD returns 2.16

GET /value?item= `CC(C)(C)c1noc(/C=C/C(=O)N2CCN(c3nc(OC[C@@]45CCCN4C[C@H](F)C5)nc4c(F)c(-c5cccc6cccc(Cl)c56)ncc34)C[C@@H]2CC#N)n1` &field=logD returns 5.11

Numbers sourced from patent US20250129103A1.
